Target: α2A adrenergic receptor (Homo sapiens)
Construct: expressed in transfected cells; host or cells: Chinese hamster lung cell line (membrane preparation)
Sequence (P08913 1-465): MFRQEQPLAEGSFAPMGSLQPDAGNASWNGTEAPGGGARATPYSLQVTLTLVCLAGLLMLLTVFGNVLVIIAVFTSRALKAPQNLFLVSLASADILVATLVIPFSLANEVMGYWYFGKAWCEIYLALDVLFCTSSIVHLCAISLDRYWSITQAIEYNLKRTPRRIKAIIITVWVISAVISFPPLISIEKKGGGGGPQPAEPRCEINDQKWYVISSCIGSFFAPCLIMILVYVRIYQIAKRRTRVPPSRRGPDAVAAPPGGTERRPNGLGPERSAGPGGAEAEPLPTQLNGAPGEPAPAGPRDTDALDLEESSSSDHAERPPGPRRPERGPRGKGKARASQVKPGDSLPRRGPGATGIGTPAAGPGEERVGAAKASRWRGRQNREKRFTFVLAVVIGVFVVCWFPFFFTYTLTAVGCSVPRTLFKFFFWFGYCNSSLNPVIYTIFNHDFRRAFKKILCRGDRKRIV
Assay: Radioligand binding, α2A adrenergic receptor ([3H]rauwolscine)
Consider the following compounds; for each one, report its Ki.
One number for each entry, in µM.

| Item Smiles | Measurement Kind | Quantity Unit | Result Number |
| --- | --- | --- | --- |
| CCOc1cc(OC)c(CCN)cc1OC | Ki | µM | 2.6 |

Alright, here's another compound for you.
Q: Consider the compound COc1cc(OCCF)c(OC)cc1CCN and give its measured Ki.
Result: 3.6

---

target: rat TAAR1 (Rattus norvegicus, UniProt Q923Y9); construct: expressed in transfected cells; host or cells: HEK 293 (membrane preparation); experiment: Radioligand binding, rat TAAR1 ([3H]RO5166017)
Sequence (Q923Y9 whole entry): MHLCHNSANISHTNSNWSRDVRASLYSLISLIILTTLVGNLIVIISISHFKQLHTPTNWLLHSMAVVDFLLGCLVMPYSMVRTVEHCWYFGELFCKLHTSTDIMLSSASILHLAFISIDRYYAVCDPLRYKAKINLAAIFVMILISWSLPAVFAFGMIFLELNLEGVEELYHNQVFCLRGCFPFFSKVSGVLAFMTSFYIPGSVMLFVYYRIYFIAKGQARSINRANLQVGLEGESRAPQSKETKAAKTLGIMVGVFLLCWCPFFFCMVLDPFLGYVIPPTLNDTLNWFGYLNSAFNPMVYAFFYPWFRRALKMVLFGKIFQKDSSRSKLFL
# strict inequality: Ki < 200 nM yields y, everything else yields n

Solved cases (4 shown):
| Compound | Label Class |
| --- | --- |
| COc1cc(OCC(F)(F)F)c(OC)cc1CCN | n |
| COc1cc(OC)c(OC)cc1CC(C)N (centres unmarked) | n |
| C=C(C)COc1cc(OC)c(CCN)cc1OC | y |
| COc1cc(OC(C)C)c(OC)cc1CC(C)N (centres unmarked) | n |

# input for lookup
Q: Hello, is Ki of the following compound strictly smaller than 200 nM? COc1cc(OCC(F)(F)F)c(OC)cc1CC(C)N (centres unmarked)
Result: n

---

Quick record of Ki values for hSERT (Homo sapiens, UniProt P31645).

I'm hoping you can list Ki for every molecule here, please.
1. COc1cc(OC)c(OC)cc1CC(C)N (stereo not shown)
2. C=C(C)COc1cc(OC)c(CC(C)N)cc1OC (stereo not shown)
3. C=CCOc1cc(OC)c(CC(C)N)cc1OC (stereo not shown)
4. COc1cc(OC(C)C)c(OC)cc1CC(C)N (stereo not shown)

Result:
1. > 7.5 µM
2. > 8.6 µM
3. > 8.6 µM
4. > 8.6 µM

---

Quick record of log10 of Ki values for UniProt:P28335.
Sequence (P28335 33-458): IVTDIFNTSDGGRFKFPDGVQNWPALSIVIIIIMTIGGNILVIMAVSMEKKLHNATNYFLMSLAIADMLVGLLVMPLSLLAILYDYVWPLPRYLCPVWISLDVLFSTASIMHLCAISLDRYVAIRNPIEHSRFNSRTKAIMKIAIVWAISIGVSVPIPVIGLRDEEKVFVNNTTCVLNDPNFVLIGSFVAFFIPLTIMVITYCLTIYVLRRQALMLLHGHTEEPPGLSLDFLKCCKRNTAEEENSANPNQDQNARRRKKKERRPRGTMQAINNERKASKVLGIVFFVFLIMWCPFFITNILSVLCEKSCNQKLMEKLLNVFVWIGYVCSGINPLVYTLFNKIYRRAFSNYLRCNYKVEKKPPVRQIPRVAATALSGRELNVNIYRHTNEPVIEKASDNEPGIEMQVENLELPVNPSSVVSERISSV
Values reflect log10 of reported Ki (µM).

Would you please look over these solved cases?
| Compound | Tested Target | log10 of Ki |
| --- | --- | --- |
| CCOc1cc(OC)c(CCN)cc1OC | UniProt:P28335 | 0.36 |
| COc1cc(OCC(F)F)c(OC)cc1CC(C)N (stereo not drawn) | UniProt:P28335 | 0.83 |
| COc1cc(OCCF)c(OC)cc1CCN | UniProt:P28335 | 0.56 |
| COc1cc(OCC(F)F)c(OC)cc1CCN | UniProt:P28335 | 0.62 |
| C=C(C)COc1cc(OC)c(CCN)cc1OC | UniProt:P28335 | -0.82 |
| C=C(C)COc1cc(OC)c(CC(C)N)cc1OC (stereo not drawn) | UniProt:P28335 | -0.54 |
| COc1cc(OCC(F)(F)F)c(OC)cc1CC(C)N (stereo not drawn) | UniProt:P28335 | 0.38 |
| COc1cc(OCc2ccccc2)c(OC)cc1CCN | UniProt:P28335 | -0.96 |

Q: Consider the compound COc1cc(OCCF)c(OC)cc1CC(C)N (stereo not drawn) and give its measured log10 of Ki.
Result: 1.04

---

Target: human 5-HT2B receptor (Homo sapiens)
Construct: expressed in transfected cells; host or cells: HEK 293
Sequence (P41595 whole entry): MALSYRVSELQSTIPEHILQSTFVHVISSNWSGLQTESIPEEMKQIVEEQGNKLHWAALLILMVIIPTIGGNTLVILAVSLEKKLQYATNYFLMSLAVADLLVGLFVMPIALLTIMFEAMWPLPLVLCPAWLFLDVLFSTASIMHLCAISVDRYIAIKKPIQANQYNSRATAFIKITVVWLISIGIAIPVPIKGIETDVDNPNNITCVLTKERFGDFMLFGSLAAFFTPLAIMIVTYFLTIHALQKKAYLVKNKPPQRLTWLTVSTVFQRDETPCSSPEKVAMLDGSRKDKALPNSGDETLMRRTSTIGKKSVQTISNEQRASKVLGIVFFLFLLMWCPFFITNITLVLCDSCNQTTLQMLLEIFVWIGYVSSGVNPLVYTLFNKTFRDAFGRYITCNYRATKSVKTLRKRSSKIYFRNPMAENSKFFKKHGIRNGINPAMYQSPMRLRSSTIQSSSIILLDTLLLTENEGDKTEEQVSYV
Assay: Activity at the 5-HT2B receptor (FLIPR calcium, HEK 293 cells)
Type: cell-based
Description: Activity at the 5-HT2B receptor was examined as previously described ([Luethi et al., 2018]). In summary, HEK 293 cells expressing the human 5-HT2B receptor were seeded at a density of 50,000 cells per well in 96-well poly-D-lysine-coated plates overnight at 37°C. […] Concentration-response curves were calculated using nonlinear regression, and EC50 values were obtained. The maximal activity at the receptors was calculated relative to 5-HT activity which was defined as 100%.
Measurement Kind: log10 EC50 (log10 of the value in nM)
Values reflect log10 of reported EC50 (nM).

| Compound | Tested Target | Result Number |
| --- | --- | --- |
| COc1cc(OCC(F)F)c(OC)cc1CC(C)N (centres unmarked) | human 5-HT2B receptor (Homo sapiens) | 2.11 |
| C=C(C)COc1cc(OC)c(CC(C)N)cc1OC (centres unmarked) | human 5-HT2B receptor (Homo sapiens) | 1.46 |
| CCOc1cc(OC)c(CCN)cc1OC | human 5-HT2B receptor (Homo sapiens) | 1.69 |
| COc1cc(OCC(F)(F)F)c(OC)cc1CCN | human 5-HT2B receptor (Homo sapiens) | 2.40 |

I'm hoping you can list log10 EC50 for every compound here, please.
1. C=CCOc1cc(OC)c(CCN)cc1OC
2. COc1cc(OCc2ccccc2)c(OC)cc1CCN
3. C=CCOc1cc(OC)c(CC(C)N)cc1OC (centres unmarked)
4. COc1cc(OC)c(OC)cc1CC(C)N (centres unmarked)

Result:
1. 2.08
2. 2.68
3. 0.98
4. 2.43

---

biological target: mouse TAAR1 (Mus musculus, UniProt Q923Y8); construct: expressed in transfected cells; host or cells: HEK 293 (membrane preparation); experiment: Radioligand binding, mouse TAAR1 ([3H]RO5166017)
Sequence (Q923Y8 whole entry): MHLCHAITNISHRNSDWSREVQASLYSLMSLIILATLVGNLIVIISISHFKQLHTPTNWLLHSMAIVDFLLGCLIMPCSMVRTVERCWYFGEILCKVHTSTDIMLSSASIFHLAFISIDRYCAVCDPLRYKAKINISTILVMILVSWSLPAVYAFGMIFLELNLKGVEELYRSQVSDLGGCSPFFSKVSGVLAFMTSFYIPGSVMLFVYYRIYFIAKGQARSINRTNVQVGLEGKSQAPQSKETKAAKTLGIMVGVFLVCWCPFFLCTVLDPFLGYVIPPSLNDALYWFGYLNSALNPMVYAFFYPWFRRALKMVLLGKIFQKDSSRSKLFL
# strict inequality: Ki < 2000 nM yields criterion met, everything else yields criterion not met

Solved cases (4 shown):
| Compound | Label Class |
| --- | --- |
| C=C(C)COc1cc(OC)c(CCN)cc1OC | criterion met |
| COc1cc(OCCF)c(OC)cc1CC(C)N (centres unmarked) | criterion not met |
| COc1cc(OCC(F)(F)F)c(OC)cc1CC(C)N (centres unmarked) | criterion not met |
| CCOc1cc(OC)c(CCN)cc1OC | criterion not met |

Q: Hello, is Ki of the following compound strictly smaller than 2000 nM? COc1cc(OC)c(OC)cc1CC(C)N (centres unmarked)
Result: criterion not met

Q: Please answer likewise for COc1cc(OCC(F)F)c(OC)cc1CCN
Result: criterion not met

Q: Please answer likewise for C=CCOc1cc(OC)c(CCN)cc1OC
Result: criterion not met

Q: Please answer likewise for COc1cc(OCCF)c(OC)cc1CCN
Result: criterion not met

Q: Please answer likewise for COc1cc(OC(C)C)c(OC)cc1CC(C)N (centres unmarked)
Result: criterion not met

Q: Please answer likewise for COc1cc(OCC(F)F)c(OC)cc1CC(C)N (centres unmarked)
Result: criterion not met

Q: Please answer likewise for C=C(C)COc1cc(OC)c(CC(C)N)cc1OC (centres unmarked)
Result: criterion met

Q: Please answer likewise for COc1cc(OCc2ccccc2)c(OC)cc1CCN
Result: criterion met

Q: Please answer likewise for COc1cc(OCC(F)(F)F)c(OC)cc1CCN
Result: criterion not met

---

Target: human TAAR1 (Homo sapiens)
Sequence (Q96RJ0 1-339): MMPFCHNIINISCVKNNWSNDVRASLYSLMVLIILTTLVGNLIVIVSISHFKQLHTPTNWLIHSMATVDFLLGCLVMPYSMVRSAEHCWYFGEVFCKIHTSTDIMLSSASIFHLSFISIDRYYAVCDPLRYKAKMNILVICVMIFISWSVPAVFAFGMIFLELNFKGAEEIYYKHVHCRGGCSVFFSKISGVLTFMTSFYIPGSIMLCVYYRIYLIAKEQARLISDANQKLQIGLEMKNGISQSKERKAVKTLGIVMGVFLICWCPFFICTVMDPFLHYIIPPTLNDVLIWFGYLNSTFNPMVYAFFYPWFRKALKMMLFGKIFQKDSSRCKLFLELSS
Assay: Activity at the human TAAR1 (cAMP, HEK 293 cells)
Conditions: human TAAR1 EC50 ± SD
pEC50: −log10 of the molar value.
Consider the following molecules; for each one, report its pEC50.

Would you please look over these solved cases?
| Molecule | Tested Target | pEC50 |
| --- | --- | --- |
| COc1cc(OCCF)c(OC)cc1CCN | human TAAR1 (Homo sapiens) | < 4.52 |
| COc1cc(OCC(F)F)c(OC)cc1CC(C)N (stereo not shown) | human TAAR1 (Homo sapiens) | < 4.52 |
| C=CCOc1cc(OC)c(CC(C)N)cc1OC (stereo not shown) | human TAAR1 (Homo sapiens) | < 4.52 |

Q: Consider the molecule COc1cc(OCC(F)(F)F)c(OC)cc1CCN and give its measured pEC50.
Result: 5.44

Values from paper PMC6893898
